Value source: paper PMC6272674

measurementDescription: MTT viability, HaCaT
Format: cell-based, human
runConditions: human, HaCaT keratinocytes, 1000 µM (IC50 exceeded 1000 µM), read-out: viability ± standard deviation at 1000 µM
readout: viability at 24 h, 1000 µM (%)
Give a bare numeral; the unit % is implied.

For the compound shown here, C=CC(C)(O)CC/C=C(\C)CCC=C(C)C (centres unmarked) [Nerolidol (2), nerolidol, reference compound] , give the reported viability at 24 h, 1000 µM.
102

For the compound shown here, C=CC(C)(O)CC(C)CCC=C(C)C (centres unmarked) , give the reported viability at 24 h, 1000 µM.
90

For the compound shown here, C=CC(C)(O)CCC=CC(C)CCC=C(C)C (centres unmarked) , give the reported viability at 24 h, 1000 µM.
87

For the compound shown here, CC(=O)OCC=C(C)CCC(C)CCC=C(C)C (centres unmarked) , give the reported viability at 24 h, 1000 µM.
110

For the compound shown here, CC(=O)OC/C=C(\C)CCC=CC(C)CCC=C(C)C (centres unmarked) , give the reported viability at 24 h, 1000 µM.
98

====

measurementDescription: MTT viability, IEC6
Format: cell-based
runConditions: rat, IEC-6 small intestine epithelial cells, 1000 µM (IC50 exceeded 1000 µM), read-out: viability ± standard deviation at 1000 µM
readout: viability at 24 h, 1000 µM (%)
Give a bare numeral; the unit % is implied.

For the compound shown here, CC(=O)OCC=C(C)CCC=C(C)C(C)CCCC(C)C (stereo not shown) [Compound 32] , give the reported viability at 24 h, 1000 µM.
92

For the compound shown here, CC(C)=CCCC(C)=CCCC(C)=CC=O [Farnesal (3), farnesal, reference compound] , give the reported viability at 24 h, 1000 µM.
85

For the compound shown here, C=CC(C)(O)CCC=C(C)C(C)CCC=C(C)C (stereo not shown) [Compound 12] , give the reported viability at 24 h, 1000 µM.
73

For the compound shown here, CC(=O)CCC=C(C)CC(C)CCC=C(C)C (stereo not shown) [Compound 9] , give the reported viability at 24 h, 1000 µM.
76

For the compound shown here, CC(C)=CCCC(C)/C=C/CCC(C)=CC=O (stereo not shown) [Compound 19] , give the reported viability at 24 h, 1000 µM.
94

For the compound shown here, CC(=O)CCC=C(C)CCC=C(C)C [Geranyl acetone (1), geranyl acetone, reference compound] , give the reported viability at 24 h, 1000 µM.
79

For the compound shown here, C=CC(C)(O)C(C)CC(C)CCC=C(C)C (stereo not shown) [Compound 17] , give the reported viability at 24 h, 1000 µM.
98

For the compound shown here, CC(=O)OCC=C(C)CC(C)CCC=C(C)C (stereo not shown) [Compound 33] , give the reported viability at 24 h, 1000 µM.
95

For the compound shown here, C=CC(C)(O)CCC(C)CCC=C(C)C (stereo not shown) [Compound 16] , give the reported viability at 24 h, 1000 µM.
113

For the compound shown here, CC(=CCO)CCC=C(C)C(C)CCCC(C)C (stereo not shown) [Compound 26] , give the reported viability at 24 h, 1000 µM.
76

====

Record type: log10(MIC) measurement. Applies to: Acinetobacter baumannii ATCC 19606
Each number you see is log10 of MIC, and the unit inside the log is µg/mL.

GET /values?readout=log10(MIC)&system=Acinetobacter baumannii ATCC 19606&item= CC(=O)OCC=C(C)CCC=C(C)C(C)CCC=C(C)C (stereo not shown) [Compound 30]
1.38

GET /values?readout=log10(MIC)&system=Acinetobacter baumannii ATCC 19606&item= CC(=O)OCC=C(C)CCC=C(C)CCC=C(C)C [Farnesyl acetate (5), farnesyl acetate, reference compound]
1.34

GET /values?readout=log10(MIC)&system=Acinetobacter baumannii ATCC 19606&item= CC(C)=CCCC(C)=CCCC(C)=CC=O [Farnesal (3), farnesal, reference compound]
1.56

GET /values?readout=log10(MIC)&system=Acinetobacter baumannii ATCC 19606&item= CNC(C)C1CCC(N)C(OC2C(N)CC(N)C(OC3OCC(C)(O)C(NC)C3O)C2O)O1 (stereo not shown) [Gentamicin, reference compound]
1.51

GET /values?readout=log10(MIC)&system=Acinetobacter baumannii ATCC 19606&item= CC(=CCO)CCC=C(C)C(C)CCCC(C)C (stereo not shown) [Compound 26]
1.58

GET /values?readout=log10(MIC)&system=Acinetobacter baumannii ATCC 19606&item= CC(=CC=O)CCC=C(C)C(C)CCCC(C)C (stereo not shown) [Compound 20, 3,7,8,12-Tetramethyltrideca-2,6-dienal]
1.58

GET /values?readout=log10(MIC)&system=Acinetobacter baumannii ATCC 19606&item= O=C(O)c1cn(C2CC2)c2cc(N3CCNCC3)c(F)cc2c1=O [Ciprofloxacin, reference compound]
0.60

GET /values?readout=log10(MIC)&system=Acinetobacter baumannii ATCC 19606&item= CC(=O)OCC=C(C)CCC(C)CCC=C(C)C (stereo not shown) [Compound 34]
1.26

GET /values?readout=log10(MIC)&system=Acinetobacter baumannii ATCC 19606&item= CC(C)=CCCC(C)CC(C)=CC=O (stereo not shown) [Compound 21, 3,5,9-Trimethyldeca-2,8-dienal]
1.72

GET /values?readout=log10(MIC)&system=Acinetobacter baumannii ATCC 19606&item= CC(C)=CCCC(C)/C=C/CCC(C)=CC=O (stereo not shown) [Compound 19]
1.62

GET /values?readout=log10(MIC)&system=Acinetobacter baumannii ATCC 19606&item= CC(C)=CCCC(C)CC(C)=CCO (stereo not shown) [Compound 27, 3,5,9-Trimethyldeca-2,8-dien-1-ol]
1.53

GET /values?readout=log10(MIC)&system=Acinetobacter baumannii ATCC 19606&item= CC(C)=CCCC(C)CC(C)C(C)=CC=O (stereo not shown) [Compound 23, 3,4,6,10-Tetramethylundeca-2,9-dienal]
1.56

GET /values?readout=log10(MIC)&system=Acinetobacter baumannii ATCC 19606&item= CC(C)=CCCC(C)CCC(C)=CC=O (stereo not shown) [Compound 22, 3,6,10-Trimethylundeca-2,9-dienal]
1.56

GET /values?readout=log10(MIC)&system=Acinetobacter baumannii ATCC 19606&item= CC(=O)OCC=C(C)CCC=C(C)C(C)CCCC(C)C (stereo not shown) [Compound 32]
1.34

GET /values?readout=log10(MIC)&system=Acinetobacter baumannii ATCC 19606&item= CC(=O)OCC=C(C)C(C)CC(C)CCC=C(C)C (stereo not shown) [Compound 35]
1.08

GET /values?readout=log10(MIC)&system=Acinetobacter baumannii ATCC 19606&item= CC(C)=CCCC(C)C(C)=CCCC(C)=CC=O (stereo not shown) [Compound 18]
1.66

GET /values?readout=log10(MIC)&system=Acinetobacter baumannii ATCC 19606&item= CC(C)=CCCC(C)/C=C/CCC(C)=CCO (stereo not shown) [Compound 25]
1.64

GET /values?readout=log10(MIC)&system=Acinetobacter baumannii ATCC 19606&item= CC(C)=CCCC(C)C(C)=CCCC(C)=CCO (stereo not shown) [Compound 24]
1.60

GET /values?readout=log10(MIC)&system=Acinetobacter baumannii ATCC 19606&item= CC(=O)OC/C=C(\C)CCC=CC(C)CCC=C(C)C (stereo not shown) [Compound 31]
1.26

====

measurementDescription: MTT viability, HL-60
Type: cell-based, human
runConditions: human, HL-60 promyelocytic leukaemia cells, HL-60, MTT, 1000 µM (IC50 exceeded 1000 µM), read-out: viability ± standard deviation at 1000 µM
Method: Cell lines and in vitro culture conditions: The human promyelocytic leukaemia cell line HL-60 was obtained from the Centre of Molecular and Macromolecular Biology in Łódź, Poland and was cultured in RPMI 1640 medium with 20% heat-inactivated fetal bovine serum (FBS). To reduce spontaneous differentiation, the cells were never allowed to exceed a concentration of 1.0 × 10^6 cells/mL. […]
Record form. Attribute: viability at 24 h, 1000 µM. Fill in for each entry.
Give a bare numeral; the unit % is implied.

For the compound shown here, CC(=O)CCC=C(C)C(C)CC(C)CCC=C(C)C (stereo not drawn) , give the reported viability at 24 h, 1000 µM.
59

For the compound shown here, CC(=O)CCC=C(C)C(C)CCC=C(C)C (stereo not drawn) , give the reported viability at 24 h, 1000 µM.
67

For the compound shown here, CC(=O)CCC=C(C)C(C)CCCC(C)C (stereo not drawn) , give the reported viability at 24 h, 1000 µM.
72

For the compound shown here, CC(=O)CCC=C(C)CC(C)CCC=C(C)C (stereo not drawn) , give the reported viability at 24 h, 1000 µM.
69

For the compound shown here, CC(=O)CCC=CC(C)CCC=C(C)C (stereo not drawn) , give the reported viability at 24 h, 1000 µM.
67

For the compound shown here, CC(=O)CCC=C(C)CCC(C)CCC=C(C)C (stereo not drawn) , give the reported viability at 24 h, 1000 µM.
62
